Listing: % labelled HEL cells of selected binders
testedTarget: T1, CD117 (c-Kit, stem cell factor receptor) on HEL or TF1 human erythroleukemia cells (human, UniProt P10721 26-976)
T1 construct: whole, on cells
T1 sequence (P10721 26-976): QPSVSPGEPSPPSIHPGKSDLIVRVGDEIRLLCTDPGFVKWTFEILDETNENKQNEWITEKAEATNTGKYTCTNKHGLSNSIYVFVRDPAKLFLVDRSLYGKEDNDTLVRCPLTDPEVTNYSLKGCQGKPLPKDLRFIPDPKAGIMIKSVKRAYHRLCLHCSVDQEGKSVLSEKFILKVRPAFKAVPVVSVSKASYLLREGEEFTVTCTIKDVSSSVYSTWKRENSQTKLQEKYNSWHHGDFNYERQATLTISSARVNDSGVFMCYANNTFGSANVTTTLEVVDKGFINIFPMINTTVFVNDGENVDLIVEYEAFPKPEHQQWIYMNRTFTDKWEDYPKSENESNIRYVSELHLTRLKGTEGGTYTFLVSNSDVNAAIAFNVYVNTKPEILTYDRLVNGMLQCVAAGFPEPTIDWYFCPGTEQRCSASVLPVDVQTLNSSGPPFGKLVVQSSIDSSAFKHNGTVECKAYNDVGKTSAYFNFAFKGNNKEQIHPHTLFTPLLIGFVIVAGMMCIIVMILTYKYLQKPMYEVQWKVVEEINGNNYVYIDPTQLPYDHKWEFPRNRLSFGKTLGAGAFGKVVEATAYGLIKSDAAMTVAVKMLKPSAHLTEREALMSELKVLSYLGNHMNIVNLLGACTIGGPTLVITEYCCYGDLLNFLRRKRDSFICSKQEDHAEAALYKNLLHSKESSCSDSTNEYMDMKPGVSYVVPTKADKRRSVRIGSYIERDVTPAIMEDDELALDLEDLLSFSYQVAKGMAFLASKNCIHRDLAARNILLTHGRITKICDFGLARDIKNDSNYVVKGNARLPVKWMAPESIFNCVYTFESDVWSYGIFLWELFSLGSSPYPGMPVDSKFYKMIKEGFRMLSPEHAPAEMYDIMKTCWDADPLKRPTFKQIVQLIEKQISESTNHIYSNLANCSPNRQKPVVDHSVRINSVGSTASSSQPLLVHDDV
measurementNotes: flow cytometry on HEL cells; 1 µl/2.10^5 cells
propertyLabel: % labelled HEL cells (%)

binder	propertyLabel	reportedResult
ch36-05 chimeric monoclonal antibody (antibody, human IgG1, kappa, V domains shown, Murine VH + human IgG1 Fc; murine VL + human Kappa; also called chR036-05; chR036.05) VH: QVQLQQSGAELVKPGAPVKLSCKASGYTFTRYWMNWVKQRPGRGLEWIGRIDPSDSEIHYNQNFKDKATLTVDKSSSTAYIQLSSLTSEDSAVYYCARDYGSDYYAMDYWGQGTSVTVSS VL: QIVLTQSPAIMSASLGEEITLTCSASSSVSYMHWYQQKSGTSPKLLIYSTSNLTSGVPSRFSGSGSGTFYSLTISSVEAEDAADYYCHQWSSYPFGGGTKLEIKR	% labelled HEL cells	80
humanized antibody 36-5 Hz121 (antibody, human IgG1, V domains shown, The variable regions were cloned into vector p3U containing the human IgG1 constant region; also called H-36.5Hz30 + L-36.5Hz31) VH: QVQLVQSGAEVKKPGASVKVSCKASGYTFTSYWMNWVRQAPGQGLEWMGRIDPSDSEIHYNQKFKGRVTMTVDTSTSTAYMELSSLRSEDTAVYYCARDYGSDYYAMDYWGQGTLVTVSS VL: QIVLTQSPAFQSVTPGEKVTITCSASQSVSYMHWYQQKSGTSPKLLIYSTSNLTSGVPSRFSGSGSGTDYTLTISSLEAEDAATYYCHQWSSYPFGGGTKVEIK	% labelled HEL cells	67
humanized antibody 36-5 Hz114 (antibody, human IgG1, V domains shown, The variable regions were cloned into expression vector p3U containing the human IgG1 constant region; also called H-36.5Hz27 + L-36.5Hz31) VH: QVQLVQSGAEVKKPGASVKVSCKASGYTFTSYWMNWVRQAPGQGLEWMGRIDPSDSEIHYNQKFKDKATLTVDKSTSTAYMELSSLRSEDTAVYYCARDYGSDYYAMDYWGQGTLVTVSS VL: QIVLTQSPAFQSVTPGEKVTITCSASQSVSYMHWYQQKSGTSPKLLIYSTSNLTSGVPSRFSGSGSGTDYTLTISSLEAEDAATYYCHQWSSYPFGGGTKVEIK	% labelled HEL cells	66
humanized antibody 36-5 Hz128 (antibody, human IgG1, V domains shown, The variable regions were cloned into vector p3U containing the human IgG1 constant region; also called H-36.5Hz31 + L-36.5Hz31) VH: QVQLVQSGAEVKKPGASVKVSCKASGYTFTSYWMNWVRQAPGQGLEWIGRIDPSDSEIHYNQKFKGRVTMTVDTSTSTAYMELSSLRSEDTAVYYCARDYGSDYYAMDYWGQGTLVTVSS VL: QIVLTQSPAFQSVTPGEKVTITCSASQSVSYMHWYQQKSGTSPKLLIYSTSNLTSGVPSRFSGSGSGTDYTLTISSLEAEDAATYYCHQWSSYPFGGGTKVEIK	% labelled HEL cells	72
